IC50 values, listed per item
- Test system: TLR7/8
- Construct: other: human PBMC; ligand SL4-Ig; individual donors 1-6; average of donors; ligand RNA40-DOTAP; individual donors; ligand R848; ligand R848
- Procedure Details: Subsequent human PBMC assay, various TLR7/8 ligands, IL-6 and IFN-α blockade
- Format: cell-based
- Experimental Context: read-out: IC50 IL-6 Ave., ligand RNA40-DOTAP, average of donors
Enter your answer as a number in µM; do not include the unit.

{"Compound": "CCN(CCO)CCCC(C)Nc1ccnc2cc(Cl)ccc12 (centres unmarked) [HCQ, hydroxychloroquine, reference compound]", "Quantity Unit": "µM", "IC50": 12.1}

Reported IC50 for C[C@@H]1CN(c2ccc(C#N)c3ncccc23)C[C@H](C(=O)N[C@H]2CNC[C@H]2F)O1.Cl [ER-899742, hydrochloride] : what is it?
0.0313

Data origin, for the record: patent USRE47193E1
